The measurements presented in this section are drawn from ChEMBL document CHEMBL1156243.

- test: Binding affinity to amyloid beta (1 to 42) oligomers by change in fluorescence at 100 uM after 10 mins
Activity calls are given as the source filed them. The rule behind the calls is not given here.
Assign a class; possible classes are true (1) for active, false (0) for inactive

COc1ccc(/C=C/C(=O)c2ccccc2)cc1 :: false (0)
O=C(c1ccccc1)c1ccccc1 :: false (0)
O=C(O)C(=O)Cc1c[nH]c2ccccc12 :: true (1)

Recorded call for "COc1ccc(/C=C/c2cccc(/C=C/c3ccc(OC)c(OC)c3)c2)cc1OC" ?
true (1)

Recorded call for "CN(C)c1ccc2nc3ccc(=[N+](C)C)cc-3sc2c1" ?
false (0)

Recorded call for "O=C(/C=C/c1ccccc1)c1ccccc1" ?
false (0)

Recorded call for "COc1ccc(/C=C/C(=O)CC(=O)/C=C/c2ccc(OC)c(OC)c2)cc1OC" ?
false (0)

Recorded call for "O=C(O[C@@H]1Cc2c(O)cc(O)cc2O[C@@H]1c1cc(O)c(O)c(O)c1)c1cc(O)c(O)c(O)c1" ?
false (0)

Recorded call for "COc1ccc(C=O)cc1" ?
false (0)

Recorded call for "COc1ccc(/C=C/C(=O)c2cccc(N)c2)cc1OC" ?
false (0)

Recorded call for "COc1cc(/C=C/C(=O)NCCNC(=O)/C=C/c2ccc(O)c(OC)c2)ccc1O" ?
false (0)

Recorded call for "COc1ccc2c(c1)c(CC(=O)O)c(C)n2C(=O)c1ccc(Cl)cc1" ?
false (0)

====

- test: Binding affinity to amyloid beta (1 to 42) fibrils by change in fluorescence at 100 uM after 10 mins
Active and inactive are the calls of the source. The rule behind the calls is not given here.
recorded_metric: Activity

Answered cases to consult:
COc1cc(-c2ccc(/N=N/c3ccc4c(S(=O)(=O)O)cc(S(=O)(=O)O)c(N)c4c3O)c(OC)c2)ccc1/N=N/c1ccc2c(S(=O)(=O)O)cc(S(=O)(=O)O)c(N)c2c1O :: inactive
CN(C)[C@@H]1C(O)=C(C(N)=O)C(=O)[C@@]2(O)C(O)=C3C(=O)c4c(O)cccc4[C@@](C)(O)[C@H]3C[C@@H]12 :: inactive
O=C1C=CC(=O)c2c(O)cccc21 :: inactive
CNc1ccc2nc3ccc(N)cc3[s+]c2c1 :: inactive
COc1ccc(C(=O)c2cc(OC)cc(OC)c2)cc1 :: inactive

Assign Activity to the following record: "O=C(O[C@@H]1Cc2c(O)cc(O)cc2O[C@@H]1c1cc(O)c(O)c(O)c1)c1cc(O)c(O)c(O)c1"
inactive

Assign Activity to the following record: "CN(C)c1ccc(N=Nc2ccccc2)cc1"
inactive

Assign Activity to the following record: "Nc1c(/N=N/c2ccc(-c3ccc(/N=N/c4cc(S(=O)(=O)O)c5ccccc5c4N)cc3)cc2)cc(S(=O)(=O)O)c2ccccc12"
Active

Assign Activity to the following record: "O=C1c2c(O)cc(O)cc2O[C@H](c2ccc(O)c(O)c2)[C@H]1O"
inactive

====

- test: Binding affinity to amyloid beta (1 to 42) oligomers by change in fluorescence at 100 uM after 10 mins
The source made the active and inactive calls. The rule behind the calls is not given here.
Assign a class; possible classes are True for active, False for inactive

Worked cases, answers included:
C=C1c2c(Cl)ccc(O)c2C(=O)C2=C(O)[C@]3(O)C(=O)C(C(N)=O)=C(O)[C@@H](N(C)C)[C@@H]3[C@@H](O)[C@H]12.O=C(O)c1cc(S(=O)(=O)O)ccc1O :: True
COc1ccc2[nH]cc(CCNC(C)=O)c2c1 :: True
NCCc1c[nH]c2ccccc12 :: True

Recorded call for "CN(C)c1ccc2nc3ccc(N)cc3[s+]c2c1" ?
False

====

- test: Binding affinity to amyloid beta (1 to 42) oligomers by change in fluorescence at 100 uM after 10 mins
Calls of active or inactive are those of the source. How the calls were made is not given here.
Assign a class; possible classes are active, inactive

Recorded call for "CCN(CC)c1ccc2c(-c3ccccc3C(C)=O)c3ccc(=[N+](CC)CC)cc-3oc2c1" ?
active

Recorded call for "O=Cc1cccc(O)c1" ?
inactive

Recorded call for "O=C1C[C@@H](c2ccc(O)cc2)Oc2cc(O)cc(O)c21" ?
inactive

Recorded call for "COc1cc(/C=C/C(=O)c2ccccc2)ccc1O" ?
inactive

Recorded call for "Nc1ccc(/N=N/c2ccc(-c3ccc(/N=N/c4c(S(=O)(=O)O)cc5cc(S(=O)(=O)O)c(/N=N/c6ccccc6)c(O)c5c4N)cc3)cc2)c(N)c1" ?
inactive

====

- test: Binding affinity to amyloid beta (1 to 42) oligomers by change in fluorescence at 100 uM after 10 mins
Activity calls are given as the source filed them. The rule behind the calls is not given here.
Assign a class; possible classes are 1 = active, -1 = inactive

Worked cases, answers included:
Nc1c2ccccc2nc2ccccc12 :: 1
O=C1c2ccccc2Cc2ccccc21 :: -1
COc1ccc(/C=C/C(=O)c2ccccc2)cc1OC :: -1

Recorded call for "O=C1C(Cl)=C(Cl)C(=O)C(Cl)=C1Cl" ?
-1

Recorded call for "Oc1ccc(/C=C/c2cc(O)cc(O)c2)cc1" ?
1

Recorded call for "CN(C)c1ccc(N=Nc2ccc(S(=O)(=O)O)cc2)cc1" ?
-1

Recorded call for "CN(C)[C@@H]1C(O)=C(C(=O)NCN2CCCC2)C(=O)[C@@]2(O)C(O)=C3C(=O)c4c(O)cccc4[C@@](C)(O)[C@H]3C[C@@H]12" ?
-1

Recorded call for "CC(=O)c1ccccc1" ?
-1

Recorded call for "OCCN1CCN(CCCN2c3ccccc3Sc3ccc(Cl)cc32)CC1" ?
-1

Recorded call for "CN(C)[C@@H]1C(O)=C(C(N)=O)C(=O)[C@@]2(O)C(O)=C3C(=O)c4c(O)cccc4[C@@](C)(O)[C@H]3C[C@@H]12" ?
-1

====

- test: Binding affinity to amyloid beta (1 to 42) fibrils by change in fluorescence at 100 uM after 10 mins
Calls of active or inactive are those of the source. How the calls were made is not given here.
Assign a class; possible classes are active, inactive

Worked cases, answers included:
CN(C)c1ccc(N=Nc2ccc(S(=O)(=O)O)cc2)cc1 :: inactive
O=C(c1ccccc1)c1ccccc1 :: inactive
Cc1ccc2ccc3ccc(C)nc3c2n1 :: active
O=C(O)C(=O)Cc1c[nH]c2ccccc12 :: active
Cc1ccc2[nH]c(C(=O)O)cc2c1 :: active

Recorded call for "O=Cc1c[nH]c2ccccc12" ?
inactive

Recorded call for "COc1cccc(C=O)c1O" ?
inactive

====

- test: Binding affinity to amyloid beta (1 to 42) fibrils by change in fluorescence at 100 uM after 10 mins
Activity calls are given as the source filed them. No rule for the calls is given here.
Assign a class; possible classes are 1.0 = active, 0.0 = inactive

Worked cases, answers included:
Nc1ccc2nc3ccc(N)cc3[s+]c2c1 :: 0.0
CC(=O)c1ccccc1 :: 0.0
N[C@@H](Cc1c[nH]c2ccccc12)C(=O)O :: 1.0
NCCc1c[nH]c2ccccc12 :: 1.0
O=c1c(O)c(-c2cc(O)c(O)c(O)c2)oc2cc(O)cc(O)c12 :: 0.0

Recorded call for "O=c1c(O)c(-c2ccc(O)cc2)oc2cc(O)cc(O)c12" ?
0.0

Recorded call for "COc1cc(/C=C/C(=O)NCc2cccc(CNC(=O)/C=C/c3ccc(O)c(OC)c3)c2)ccc1O" ?
0.0

Recorded call for "O=C(O)c1ccccc1O" ?
1.0

====

- test: Binding affinity to amyloid beta (1 to 42) fibrils by change in fluorescence at 100 uM after 10 mins
Activity calls are given as the source filed them. How the calls were made is not given here.
recorded_metric: Activity

Oc1cc(O)c2c(c1)O[C@H](c1ccc(O)c(O)c1)[C@H](O)C2 :: inactive
c1ccc2[nH]ccc2c1 :: Active
O=C(O)c1cc(/N=N/c2ccc(-c3ccc(/N=N/c4ccc(O)c(C(=O)O)c4)cc3)cc2)ccc1O :: inactive
O=C(/C=C/c1cccc(O)c1)c1ccccc1 :: inactive
CCN(CC)c1ccc2c(-c3ccccc3C(C)=O)c3ccc(=[N+](CC)CC)cc-3oc2c1 :: Active

Assign Activity to the following record: "O=C1C(Cl)=C(Cl)C(=O)C(Cl)=C1Cl"
inactive

Assign Activity to the following record: "O=C(/C=C/c1ccc(O)c(O)c1)O[C@H](Cc1ccc(O)c(O)c1)C(=O)O"
inactive

Assign Activity to the following record: "COc1cc(/C=C/C(=O)NCCNC(=O)/C=C/c2ccc(O)c(OC)c2)ccc1O"
inactive

Assign Activity to the following record: CC(Cc1ccc(O)c(O)c1)C(C)Cc1ccc(O)c(O)c1 (stereo unspecified)
inactive

Assign Activity to the following record: "CN(C)c1ccc2nc3ccc(=[N+](C)C)cc-3sc2c1"
inactive

Assign Activity to the following record: "COc1ccc2c(c1)c(CC(=O)O)c(C)n2C(=O)c1ccc(Cl)cc1"
inactive

====

- test: Binding affinity to amyloid beta (1 to 42) oligomers by change in fluorescence at 100 uM after 10 mins
The source made the active and inactive calls. The rule behind the calls is not given here.
Assign a class; possible classes are true = active, false = inactive

COc1cccc(C=O)c1O :: false
COc1ccc(/C=C/c2cc(OC)cc(OC)c2)cc1 :: false
CNc1ccc2nc3ccc(N)cc3[s+]c2c1 :: false
COc1cc(/C=C/C(=O)NCc2cccc(CNC(=O)/C=C/c3ccc(O)c(OC)c3)c2)ccc1O :: false
COc1cc(/C=C/C(=O)NCCCCNC(=O)/C=C/c2ccc(O)c(OC)c2)ccc1O :: false
O=C(c1ccccc1)c1ccc(O)c(O)c1O :: false
O=C(/C=C/c1ccc(O)c(O)c1)O[C@H](Cc1ccc(O)c(O)c1)C(=O)O :: false
O=C1C=CC(=O)c2c(O)cccc21 :: false
O=C(/C=C/c1cccc(O)c1)c1ccccc1 :: false
O=c1cc(-c2ccc(O)cc2)oc2cc(O)cc(O)c12 :: false

Recorded call for "O=c1c(O)c(-c2cc(O)c(O)c(O)c2)oc2cc(O)cc(O)c12" ?
false

Recorded call for "c1ccc2[nH]ccc2c1" ?
true

Recorded call for "Cc1ccc2ccc3ccc(C)nc3c2n1" ?
true

Recorded call for "O=C1c2c(O)cc(O)cc2O[C@H](c2ccc(O)c(O)c2)[C@H]1O" ?
false

Recorded call for "O=c1c(-c2ccc(O)cc2)coc2cc(O)cc(O)c12" ?
false
